Reported IC50 by item:
test_system: human alpha2C receptors (Homo sapiens)
Sequence (P18825 whole entry): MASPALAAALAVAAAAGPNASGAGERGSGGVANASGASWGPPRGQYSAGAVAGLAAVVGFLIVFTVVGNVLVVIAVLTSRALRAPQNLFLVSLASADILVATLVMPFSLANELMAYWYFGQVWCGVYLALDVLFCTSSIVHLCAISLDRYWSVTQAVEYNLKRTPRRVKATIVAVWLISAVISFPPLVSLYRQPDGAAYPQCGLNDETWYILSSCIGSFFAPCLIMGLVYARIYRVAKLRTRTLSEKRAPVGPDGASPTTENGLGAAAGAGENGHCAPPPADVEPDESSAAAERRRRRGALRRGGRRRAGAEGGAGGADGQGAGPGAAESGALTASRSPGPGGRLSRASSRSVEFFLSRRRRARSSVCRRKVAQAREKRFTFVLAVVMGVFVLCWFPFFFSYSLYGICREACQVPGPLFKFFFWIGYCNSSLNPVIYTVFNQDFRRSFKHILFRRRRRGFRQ
test_protocol: Determination of alpha2C antagonistic activity in vitro (intracellular calcium, FLIPR Calcium 3 Assay, FLEXstation)
condition_set: CHO cells stably transfected with human alpha2C receptor and Gα16; stimulated with 100 nM adrenaline or 200 nM noradrenaline
reported_endpoint: IC50

[
  {
    "compound": "C[C@]1(C(=O)O)CCCN(C[C@H]2COc3ccccc3O2)C1 [Example 86]",
    "reported_endpoint": "IC50",
    "reported_value": "10.7 nM"
  },
  {
    "compound": "Fc1ccc(C2CCCN(C[C@H]3COc4ccccc4O3)C2)cc1 (stereo in doubt) [Example 18]",
    "reported_endpoint": "IC50",
    "reported_value": "69.5 nM"
  },
  {
    "compound": "CC1(COCC(F)(F)F)CCCN(CC2COc3ccccc3O2)C1 (stereo not drawn) [Example 74]",
    "reported_endpoint": "IC50",
    "reported_value": "7.4 nM"
  },
  {
    "compound": "C=CCC1(COC)CCCN(CC2COc3ccccc3O2)C1 (stereo not drawn) [Example 72]",
    "reported_endpoint": "IC50",
    "reported_value": "0.9 nM"
  },
  {
    "compound": "c1ccc(C2CCCN(CC3COc4ccccc4O3)C2)cc1 (stereo not drawn) [Example 2]",
    "reported_endpoint": "IC50",
    "reported_value": "11.4 nM"
  },
  {
    "compound": "CCC1(COC)CCCN(CC2COc3ccccc3O2)C1 (stereo not drawn) [Example 63]",
    "reported_endpoint": "IC50",
    "reported_value": "0.8 nM"
  },
  {
    "compound": "C[C@]1(COCC(=O)O)CCCN(C[C@H]2COc3ccccc3O2)C1 [Example 96]",
    "reported_endpoint": "IC50",
    "reported_value": "4.6 nM"
  },
  {
    "compound": "C=CCOCC1(C)CCCN(CC2COc3ccccc3O2)C1 (stereo not drawn) [Example 69]",
    "reported_endpoint": "IC50",
    "reported_value": "1.7 nM"
  },
  {
    "compound": "C=CCC1(CO)CCCN(CC2COc3ccccc3O2)C1 (stereo not drawn) [Example 71]",
    "reported_endpoint": "IC50",
    "reported_value": "1.1 nM"
  },
  {
    "compound": "OCc1cccc(C2CCCN(C[C@H]3COc4ccccc4O3)C2)c1 (stereo in doubt) [Example 29]",
    "reported_endpoint": "IC50",
    "reported_value": "5.4 nM"
  },
  {
    "compound": "CC1(COS(C)(=O)=O)CCCN(CC2COc3ccccc3O2)C1 (stereo not drawn) [Example 61]",
    "reported_endpoint": "IC50",
    "reported_value": "2.4 nM"
  },
  {
    "compound": "c1ccc2c(c1)OCC(CN1CCC3CCCCC3C1)O2 (stereo not drawn) [Example 48]",
    "reported_endpoint": "IC50",
    "reported_value": "7.4 nM"
  },
  {
    "compound": "COC(C)(C)C1(C)CCCN(CC2COc3ccccc3O2)C1 (stereo not drawn) [Example 58]",
    "reported_endpoint": "IC50",
    "reported_value": "9.5 nM"
  },
  {
    "compound": "C[C@]1(COCCO)CCCN(C[C@H]2COc3ccccc3O2)C1 [Example 89, D-tartrate]",
    "reported_endpoint": "IC50",
    "reported_value": "0.6 nM"
  },
  {
    "compound": "Oc1ccccc1C1CCCN(CC2COc3ccccc3O2)C1 (stereo not drawn) [Example 12]",
    "reported_endpoint": "IC50",
    "reported_value": "19.6 nM"
  }
]
